The measured values listed here are drawn from ChEMBL document CHEMBL5579901.

Target: Cyclin-dependent kinases regulatory subunit 1/S-phase kinase-associated protein 2 (Homo sapiens) (UniProt P61024+Q13309)
Sequence (P61024 2-79 limits assumed): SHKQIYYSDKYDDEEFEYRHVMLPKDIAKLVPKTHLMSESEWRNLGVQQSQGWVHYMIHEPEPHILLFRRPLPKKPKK
Sequence (Q13309 whole entry partner): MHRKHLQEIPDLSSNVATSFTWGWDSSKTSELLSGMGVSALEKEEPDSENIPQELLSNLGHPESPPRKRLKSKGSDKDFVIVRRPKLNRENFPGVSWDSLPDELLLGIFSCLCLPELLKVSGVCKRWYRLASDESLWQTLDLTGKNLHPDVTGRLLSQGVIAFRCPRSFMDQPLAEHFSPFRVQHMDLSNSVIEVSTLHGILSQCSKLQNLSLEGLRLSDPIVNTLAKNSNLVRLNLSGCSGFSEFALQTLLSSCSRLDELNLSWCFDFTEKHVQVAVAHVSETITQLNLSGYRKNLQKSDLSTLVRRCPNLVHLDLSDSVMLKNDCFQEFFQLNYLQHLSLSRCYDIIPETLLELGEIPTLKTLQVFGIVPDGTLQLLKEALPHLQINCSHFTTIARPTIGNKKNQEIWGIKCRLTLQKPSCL
Assay: Inhibition of GST-tagged SKP2 (unknown origin) binding to His6-tagged CKS1 (unknown origin) at 50 uM preincubated with SKP2 for 10 mins followed by CKS1 addition for 20 mins and measured after by HTRF method relative to control
Format: protein assay
Conditions: time 30.0 min
Catalogue of inhibition readings, one per entry.
Please give a number only; it is taken to be in %.

Some compounds with recorded inhibition:
COc1cc(OC)c(-c2cc(C)nc3nc(SCc4cccc(Cl)c4Cl)nn23)c(OC)c1    7.29
COc1cc(OC)c(-c2cc(C)nc3nc(SCc4ccc(C(F)(F)F)cc4)nn23)c(OC)c1    27.1
COC(=O)c1cccc(Nc2cc(C)nc3nc(SCc4ccc(Br)cc4)nn23)c1    12.4
COc1cc(OC)c(-c2cc(C)nc3nc(SCc4ccc(Br)cc4)nn23)c(OC)c1    69.6
C#CCSc1nc2nc(C)cc(-c3c(OC)cc(OC)cc3OC)n2n1    5.84
Cc1cc(-c2cccc(C(=O)N3CCN(C)CC3)c2)n2nc(SCc3ccc(Br)cc3)nc2n1    23.4
Cc1cc(-c2ccc(C(=O)N3CCN(C)CC3)cc2)n2nc(SCc3ccc(Br)cc3)nc2n1    14.6
COc1cc(OC)c(-c2cc(C)nc3nc(SCCCc4ccccc4)nn23)c(OC)c1    20.3

Switching to the query record.
Memo: `COc1cc(OC)c(-c2cc(C)nc3nc(SCc4cccc5ccccc45)nn23)c(OC)c1` , reported inhibition: 17.4
